- target-under-test: Nucleoprotein (Human respiratory syncytial virus A (strain A2), UniProt P03418)
- Sequence (P03418 whole entry): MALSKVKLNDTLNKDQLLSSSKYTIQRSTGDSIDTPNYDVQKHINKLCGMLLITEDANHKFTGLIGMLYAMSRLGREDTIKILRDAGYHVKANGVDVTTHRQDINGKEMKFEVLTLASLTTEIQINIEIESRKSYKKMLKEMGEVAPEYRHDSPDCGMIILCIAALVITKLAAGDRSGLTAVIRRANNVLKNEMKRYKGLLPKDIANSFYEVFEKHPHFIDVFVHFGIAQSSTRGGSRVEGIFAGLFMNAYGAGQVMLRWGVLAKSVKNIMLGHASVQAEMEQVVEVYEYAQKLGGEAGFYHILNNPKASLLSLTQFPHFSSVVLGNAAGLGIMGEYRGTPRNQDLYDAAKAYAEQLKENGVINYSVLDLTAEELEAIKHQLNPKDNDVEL
- test-name: Inhibition of Respiratory syncytial virus A2 protein N by luciferase reporter-based RSV minigenome assay
value-kind: pIC50
Schema: pIC50 number; meaning minus log10 of the concentration expressed in molar units.

Could you tell me which pIC50 is on file for Cc1cnc(N2CC3(CCOCC3)C2)c(C(=O)Nc2ccc(C(=O)N3CCc4cc(-c5nc6cccc(F)c6[nH]5)sc4-c4ccccc43)cc2)c1 ? 8.70

----------
Let's look at some molecules and their measured CC50.
- test-name: Cytotoxicity against human Hep2 cells
- Format: cell-based
- settings: HEp-2 cells

Some solved entries appear below for comparison.
O=C(Nc1ccc(C(=O)N2CCc3cc(-c4nc5c(Cl)cccc5[nH]4)sc3-c3ccccc32)cc1)c1cccnc1N1CC2(CCOCC2)C1 | > 14.2 µM
O=C(Nc1ccc(C(=O)N2CCc3cc(-c4nc5cncnc5[nH]4)sc3-c3ccccc32)cc1)c1cccnc1N1CC2(CCOCC2)C1 | > 14.9 µM
Cc1cnc(N2CC3(CCOCC3)C2)c(C(=O)Nc2ccc(C(=O)N3CCc4cc(-c5nc6ccccc6[nH]5)sc4-c4ccccc43)cc2)c1 | > 14.6 µM

Next molecule, CC50 to be filled in.
Form field: reported CC50 of O=C(Nc1ccc(C(=O)N2CCc3cc(-c4nc5c(C(F)(F)F)cccc5[nH]4)sc3-c3ccccc32)cc1)c1cccnc1N1CC2(CCOCC2)C1 > 13.6 µM
